- PROTOCOL SUMMARY: FRG1 promoter luciferase signal modulators, primary screen, FRG1 inhibition for FSHD, cell-based, C2C12 myotubes, firefly/Renilla luciferase, luminescence (AID 1084)
- TEST PARAMETERS: higher = more signal, called active from +8 up or from −8 down
Exercise: state measured z-score for each of the molecules provided.
One number for each entry.

Some molecules with known z-score results, for comparison:
MOLECULE	TEST RESULT
C[C@@H](OCc1ccccc1)C1NC(=O)[C@@]23C(=O)N[C@@H](Cc4ccccc4)C2[C@H](C)[C@@]2(C)O[C@H]2C3/C=C/C/C=C\CNC(=O)[C@@H]2CCCN2C1=O (stereo partly drawn)	1.91
CC(C)(C)OC(=O)CC[C@@]12N=C(c3ccc(OCCCO)cc3)O[C@@H]1c1ccccc1CN(Cc1ccccc1)C2=O	-4.73

// switching to the query molecule
[Q] # input molecule: NC(=O)NCC#Cc1ccc2c(c1)[C@]1(C(=O)N2)[C@H](c2ccc(OCCO)cc2)N2[C@H](c3ccccc3)[C@H](c3ccccc3)OC(=O)[C@H]2[C@@H]1C(=O)Nc1nc2ccccc2s1 ; wanted: its z-score
[A] 2.5
